Quick reference: pIC50 of the listed items.
molecular target: GSK-3β (Oryctolagus cuniculus, UniProt G1T8E2); construct: isolated from a strain of E. coli that carries a clone expressing GSK-3β derived from a rabbit skeletal muscle cDNA library [34]; assay: GSK-3β kinase assay; conditions: read-out: Kinase inhibition IC50 GSK3β
Sequence (G1T8E2 1-432): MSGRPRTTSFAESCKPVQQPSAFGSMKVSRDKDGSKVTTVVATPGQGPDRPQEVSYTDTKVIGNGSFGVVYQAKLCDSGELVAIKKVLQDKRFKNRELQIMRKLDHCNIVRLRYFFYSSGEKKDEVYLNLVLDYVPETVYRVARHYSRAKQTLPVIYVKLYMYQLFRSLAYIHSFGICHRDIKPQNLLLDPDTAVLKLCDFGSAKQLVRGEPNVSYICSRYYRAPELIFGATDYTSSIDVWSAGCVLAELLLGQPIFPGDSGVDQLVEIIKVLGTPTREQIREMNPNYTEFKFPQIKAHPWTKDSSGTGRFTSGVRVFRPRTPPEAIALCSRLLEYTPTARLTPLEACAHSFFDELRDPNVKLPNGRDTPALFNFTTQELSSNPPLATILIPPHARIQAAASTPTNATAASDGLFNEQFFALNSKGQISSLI
pIC50: −log10 of the molar value.

{"columns": ["SMILES_CODE", "ASSAY_TARGET", "pIC50"],
 "data": [
  ["OCCc1sc(-c2ccnc(Nc3ccc(Cl)nc3)n2)nc1O", "GSK-3β (Oryctolagus cuniculus, UniProt G1T8E2)", 6.79],
  ["Cc1cc(Nc2nccc(-c3nccs3)n2)cnc1Cl", "GSK-3β (Oryctolagus cuniculus, UniProt G1T8E2)", 7.05],
  ["Clc1ccc(Nc2nccc(-c3nccs3)n2)cn1", "GSK-3β (Oryctolagus cuniculus, UniProt G1T8E2)", 6.75],
  ["Cc1nc(-c2ccnc(Nc3cccc(O)c3)n2)sc1C", "GSK-3β (Oryctolagus cuniculus, UniProt G1T8E2)", 5.82],
  ["Cc1nc(-c2ccnc(Nc3cccc(N)c3)n2)sc1C", "GSK-3β (Oryctolagus cuniculus, UniProt G1T8E2)", 5.46],
  ["CCOC(=O)c1sc(-c2ccnc(Nc3ccc(Cl)cc3)n2)nc1O", "GSK-3β (Oryctolagus cuniculus, UniProt G1T8E2)", 6.87],
  ["Cc1sc(-c2ccnc(Nc3ccc(Cl)nc3)n2)nc1O", "GSK-3β (Oryctolagus cuniculus, UniProt G1T8E2)", 7.10],
  ["Cc1nc(-c2ccnc(Nc3ccc(Cl)nc3)n2)sc1C", "GSK-3β (Oryctolagus cuniculus, UniProt G1T8E2)", 5.54],
  ["CCOC(=O)c1sc(-c2ccnc(Nc3ccc(Cl)nc3)n2)nc1O", "GSK-3β (Oryctolagus cuniculus, UniProt G1T8E2)", 7.72],
  ["c1cc(-c2nccs2)nc(Nc2ccc(N3CCCC3)nc2)n1", "GSK-3β (Oryctolagus cuniculus, UniProt G1T8E2)", 6.32],
  ["Cc1sc(-c2ccnc(Nc3ccc(Cl)cc3)c2)nc1O", "GSK-3β (Oryctolagus cuniculus, UniProt G1T8E2)", 6.33],
  ["Cc1nc(-c2ccnc(Nc3ccc(Cl)c(C(F)(F)F)c3)n2)sc1C", "GSK-3β (Oryctolagus cuniculus, UniProt G1T8E2)", 4.81],
  ["Cc1nc(-c2ccnc(Nc3cccc(C(F)(F)F)c3)n2)sc1C", "GSK-3β (Oryctolagus cuniculus, UniProt G1T8E2)", 4.91],
  ["COc1ccc(Nc2nccc(-c3nccs3)n2)cn1", "GSK-3β (Oryctolagus cuniculus, UniProt G1T8E2)", 6.04],
  ["COc1ccc(Nc2nccc(-c3nc(C)c(C)s3)n2)cn1", "GSK-3β (Oryctolagus cuniculus, UniProt G1T8E2)", 5.26]
]}
